Target: T1, Human mature myostatin (myostatin mature form; recombinant mature myostatin) (human (mature form 100% identical in …, UniProt O08689 268-376 (mouse entry), biotinylated in the Biacore assay (immobilized on a streptavidin chip); not labelled in the HEK Blue Assay)
T1 construct: Disulfide-bonded homodimer of the C-terminal growth factor domain, purified from latent myostatin expressed in FreeStyle293-F cells; also called GDF-8 mature form; C-terminal growth factor domain of human myostatin
T1 sequence: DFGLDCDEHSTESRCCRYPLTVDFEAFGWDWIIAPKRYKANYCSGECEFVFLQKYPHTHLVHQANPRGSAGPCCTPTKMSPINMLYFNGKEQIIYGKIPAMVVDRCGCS
Experiment: SPR, Biacore T200, 37 degrees C; biotinylated mature myostatin on streptavidin chip, 100 nM antibody bound at pH 7.4; dissociation phase at pH 5.8
Property Name: koff
Include the unit right after the number.

For reference, reported koff for MS_M22601H1020-SG1/M22608L0744-SK1 (antibody, human IgG1, kappa, V domains shown, pH-dependent variant of MSLO00-SG1; also called MSLO01-SG1; LO01-SG1) VH: EVQLVESGGGLVQPGGSLRLSCAVSGFTLSHYVKGWVRQAPGKGLEWIGIINISGSTYYASWAKGRFTISRDNSKNTVYLQMNSLRAEDTAVYFCARGHDNFGYSYHDFNLWGQGTLVTVSS VL: AVVMTQSPATLSLSPGERVTLSCQASQSIHHELSWYQQKPGQPPKLLIYLASTLASGVPSRFKGSGSGTDFTLTISSLQPEDAATYYCQTYDGISHYGVAFGQGTKVEIKR stands at 0.00228 s⁻¹
